# System: SNB-19 CNS
# Protocol: NCI-60 one-dose screen, 48 h
# Stated Conditions: 10 µM
The panel holds about 83,000 compounds, 20% with a hit somewhere; the sample as a whole holds those more often. Calls of active or inactive are those of the source. How the source made its calls: active means growth percent below 10; inactive means the rest.
Outcome field: choose from 1 (active), -1 (inactive)

Example entries begin here.
INSERT INTO measurements (compound, assigned_label) VALUES
  ('N=c1c2c(-c3ccccc3)c(-c3ccccc3)n(Cc3ccccc3)c2ncn1CCCO', -1),
  ('O=C1/C(=C/c2ccc([N+](=O)[O-])s2)Oc2ccccc21', 1),
  ('O=C(Nc1nc(-c2ccccc2Cl)cs1)c1cc(-c2ccc(Cl)cc2)nc2ccc(Cl)cc12', -1),
  ('O=C(c1cccs1)c1ccccc1Cc1ccccc1', -1),
  ('Clc1ccc2c(NCCCNc3nccc(Nc4ccc(Br)cc4)n3)ccnc2c1', 1),
  ('O=C(Nc1nc2ccc(F)cc2s1)c1cc(-c2ccc(F)cc2)n2nc(-c3ccccc3)cc2n1', -1),
  ('CCn1cc(C(=O)O)c(=O)c2cnc(N3CCCC3)nc21', -1),
  ('CN1CC[C@@H](c2c(O)cc(O)c3c(=O)cc(-c4ccccc4Cl)oc23)[C@@H](O)C1', -1);

What was the test verdict on CC(C)=CCc1cc(O)cc2c1OC(C=C(C)C)C1=C2C(=O)C2=C(NCCS2(=O)=O)C1=O (stereo not given) ?
1

Look up the recorded call for `C#Cc1ccc(-n2c(/C=C/c3ccc4ccccc4n3)nc3ncccc3c2=O)cc1` in this test.
1

----------
# Tested on: K-562 leukemia
# Protocol: NCI-60 one-dose screen, 48 h
# Stated Conditions: 10 µM
# Description: Cells are grown in 96 well plates and exposed to the test compound for 48 hours. Compounds are tested at a single concentration, which is 10^-5 M for most compounds. The reported endpoint is percent growth (GI% or GIPRCNT), where numbers from 0 - 100% represent growth inhibition, and numbers from -100% - 0 represent cell death. For example, a value of 40 represents 60% growth inhibition. A value of 0 means no net growth occurred over the course of the experiment. […]
This is part of a sample that, as a whole, favours compounds with a hit. Of some 83,000 tested, about 20% had one in any assay. Activity calls are given as the source filed them. The calls were made as follows: active = growth percent below 10; inactive = the rest.
Pick one and only one: y (active), n (inactive)

INSERT INTO measurements (compound, assigned_label) VALUES
  ('c1ccc(C(NC2CC3CCC2C3)c2ccccc2)cc1 (configuration not stated)', 'n'),
  ('CS(=O)(=O)Nc1ccc(Nc2c3ccccc3nc3cc([N+](=O)[O-])ccc23)cc1', 'y'),
  ('O=C(Nc1ccc(Cl)c([N+](=O)[O-])c1)Nc1nc2ccccc2s1', 'n'),
  ('O=C1Nc2ccc(Cl)cc2/C1=C\c1c(-c2ccc(Cl)cc2)nc2sc(C3CC3)nn12', 'n'),
  ('CCOC(=O)C1CCc2c(ccc3ccccc23)N1CCC#N (configuration not stated)', 'n');

Short answer needed: outcome of this test for `COc1cc(NC(=O)CCSc2nc3ccc(C)cc3c(=O)n2Cc2ccccc2)cc(OC)c1OC` ?
n

Recorded test outcome, item `COc1ccc(-c2nc(-c3nc4ccc(OC)cc4[nH]3)cc3c2[nH]c2ccccc23)cc1`
n

----------
# Test system: HS 578T breast
# Protocol: NCI-60 one-dose screen, 48 h (100 = growth as untreated, 0 = no growth, -100 = all killed)
# Stated Conditions: 10 µM
Compounds without any hit were thinned out: in the full panel of roughly 83,000, 20% have a hit.
Catalogue of molecules with associated growth
Reply numerically in %, unit not repeated.

Example molecules with recorded growth:
INSERT INTO assay_data (mol_smiles, quantitative_readout) VALUES
  ('COc1cc(C(=O)N2CCN(c3ccccc3OC)CC2)c(N)cc1OCCCN1CCN(c2ccccc2OC)CC1', 99),
  ('Cc1ccc(C(=O)Nc2cccc(F)c2)cc1NC(=O)C1(c2ncnc3[nH]ccc23)CC1', 74),
  ('O=C(C[P+](c1ccccc1)(c1ccccc1)c1ccccc1)C[P+](c1ccccc1)(c1ccccc1)c1ccccc1', -5.42),
  ('CN1c2ccccc2[C@]2(Cc3ccccc3)Cc3ccccc3N[C@H]12', 110);

Request the reported growth associated with `CCCCCCCCCCCCCCCCCC(=O)OCCCCCCC`
109

Measured values drawn from PubChem BioAssay (NCI) for this set.
